Measured logD, listed per entry for reference.
Assay: physchem
Details: buffer, pH 7.4
Description: Lipophilicity, logD of compound at pH 7.4 by HPLC analysis
No unit in the answer, please; the number alone is enough.

Reference set, count: 4
- Molecule: "COc1ccc2[nH]c(C3CCCN(C(=O)c4ccc(F)cc4)C3)cc2n1 (stereo unspecified)"
  logD: 3.39
- Molecule: "CCC(=O)N1CCCC(c2nc3ncc(Cl)cc3[nH]2)C1 (stereo unspecified)"
  logD: 2.17
- Molecule: "O=C(c1ccc(F)cc1)N1CCC(c2cc3ncccc3[nH]2)C1 (stereo unspecified)"
  logD: 2.62
- Molecule: "O=C(c1cc(C2CC2)no1)N1CCOC(c2cc3ncccc3[nH]2)C1 (stereo unspecified)"
  logD: 2.4

Now let's try a different one.
Exercise: So what does the record say about logD for CC(C)c1cc(C(=O)N2CC=C(c3cc4ncccc4[nH]3)CC2)on1 ?
Key: 3.23
